The measured values listed here are drawn from PubChem BioAssay (NCI).

Test system: ACHN renal
experimental_details: NCI tumour cell line growth inhibition, 48 h

molecule: O=c1[nH]c(=S)[nH]c2c1C(c1ccc([N+](=O)[O-])cc1)c1c([nH]c(=S)[nH]c1=O)O2
TGI: > 100 µM
--
molecule: c1ccc(Sc2ncnc3ccccc23)cc1
TGI: 31.6 µM
--
molecule: COc1cc(S(=O)(=O)Nc2nc(-c3ccc(N4C(=O)C(CC(=O)O)SC4c4cccs4)cc3)cs2)ccc1Cl (stereo not given)
TGI: > 100 µM
--
molecule: O=S(=O)(c1ccccc1)N1CCN(S(=O)(=O)c2ccccc2)c2ccccc21
TGI: > 100 µM
--
molecule: COc1cc(-c2ccc3cc(OC)c(OC)c(OC)c3c2)cc(OC)c1OC
TGI: > 100 µM
